# Tested on: Enterococcus faecium
# EXPERIMENT_SUMMARY: Antibacterial activity against vancomycin-resistant Enterococcus faecium ATCC 700221 after 14 to 16 hrs by serial microbroth dilution method
# Format: functional

COMPOUND: COC(=O)c1[nH]cc(-c2c[nH]c3ccc(Cl)cc23)c1-c1c[nH]c2ccc(Cl)cc12 [LYNAMICIN A]
RELATION_SYMBOL: =
MIC [µM]: 19
--
COMPOUND: COC(=O)c1[nH]c(C(=O)OC)c(-c2c[nH]c3ccc(Cl)cc23)c1-c1c[nH]c2ccc(Cl)cc12 [LYNAMICIN D]
RELATION_SYMBOL: =
MIC [µM]: 17
--
COMPOUND: COC(=O)c1[nH]cc(-c2c[nH]c3cc(Cl)c(Cl)cc23)c1-c1c[nH]c2ccc(Cl)cc12 [LYNAMICIN B]
RELATION_SYMBOL: =
MIC [µM]: 4.4
--
COMPOUND: COC(=O)c1[nH]c(C(=O)OC)c(-c2c[nH]c3ccc(Cl)cc23)c1-c1c[nH]c2ccccc12 [LYNAMICIN E]
RELATION_SYMBOL: >
MIC [µM]: 54
--
COMPOUND: Clc1cc2[nH]cc(-c3c[nH]cc3-c3c[nH]c4cc(Cl)c(Cl)cc34)c2cc1Cl [LYNAMICIN C]
RELATION_SYMBOL: =
MIC [µM]: 4.6

====

# Tested on: Haemophilus influenzae
# EXPERIMENT_SUMMARY: Antibacterial activity against Haemophilus influenzae ATCC 49766 after 14 to 16 hrs
# Type: functional

QUERY_SMILES: COC(=O)c1[nH]c(C(=O)OC)c(-c2c[nH]c3ccc(Cl)cc23)c1-c1c[nH]c2ccc(Cl)cc12
RELATION_SYMBOL: =
MIC, µM: 17
--
QUERY_SMILES: COC(=O)c1[nH]cc(-c2c[nH]c3ccc(Cl)cc23)c1-c1c[nH]c2ccc(Cl)cc12
RELATION_SYMBOL: =
MIC, µM: 28
--
QUERY_SMILES: Clc1cc2[nH]cc(-c3c[nH]cc3-c3c[nH]c4cc(Cl)c(Cl)cc34)c2cc1Cl
RELATION_SYMBOL: =
MIC, µM: 15
--
QUERY_SMILES: COC(=O)c1[nH]cc(-c2c[nH]c3cc(Cl)c(Cl)cc23)c1-c1c[nH]c2ccc(Cl)cc12
RELATION_SYMBOL: =
MIC, µM: 13
--
QUERY_SMILES: COC(=O)c1[nH]c(C(=O)OC)c(-c2c[nH]c3ccc(Cl)cc23)c1-c1c[nH]c2ccccc12
RELATION_SYMBOL: >
MIC, µM: 72

====

# Tested on: Streptococcus pneumoniae
# EXPERIMENT_SUMMARY: Antibacterial activity against penicillin-sensitive Streptococcus pneumoniae ATCC 49619 after 14 to 16 hrs
# Assay type: functional
MEASURED_ENDPOINT: MIC

COMPOUND: COC(=O)c1[nH]c(C(=O)OC)c(-c2c[nH]c3ccc(Cl)cc23)c1-c1c[nH]c2ccccc12 [LYNAMICIN E]
MEASURED_ENDPOINT: MIC
MEASUREMENT: > 72 µM
--
COMPOUND: Clc1cc2[nH]cc(-c3c[nH]cc3-c3c[nH]c4cc(Cl)c(Cl)cc34)c2cc1Cl [LYNAMICIN C]
MEASURED_ENDPOINT: MIC
MEASUREMENT: 46 µM
--
COMPOUND: COC(=O)c1[nH]cc(-c2c[nH]c3ccc(Cl)cc23)c1-c1c[nH]c2ccc(Cl)cc12 [LYNAMICIN A]
MEASURED_ENDPOINT: MIC
MEASUREMENT: 57 µM
--
COMPOUND: COC(=O)c1[nH]c(C(=O)OC)c(-c2c[nH]c3ccc(Cl)cc23)c1-c1c[nH]c2ccc(Cl)cc12 [LYNAMICIN D]
MEASURED_ENDPOINT: MIC
MEASUREMENT: 50 µM
--
COMPOUND: COC(=O)c1[nH]cc(-c2c[nH]c3cc(Cl)c(Cl)cc23)c1-c1c[nH]c2ccc(Cl)cc12 [LYNAMICIN B]
MEASURED_ENDPOINT: MIC
MEASUREMENT: 18 µM
